test system: LoVo; experiment: Antiproliferative activity against human LoVo cells; assay type: functional, cell-based
So basically, if IC50 comes in under 10 µM it's Yes, and if it's 10 µM or more it's No.

Recorded results for 6 molecules are shown here.
smiles.entry	category.label
CC[C@@H](C(=O)[C@@H](C)[C@@H](O)[C@H](C)[C@@H]1O[C@@H]([C@@H](CC)C(=O)O)CC[C@@H]1C)[C@H]1O[C@]2(C=C[C@@H](O)[C@]3(CC[C@@](C)([C@H]4CC[C@](O)(CC)[C@H](C)O4)O3)O2)[C@H](C)C[C@@H]1C	Yes
CC[C@@H](C(=O)[C@@H](C)[C@@H](O)[C@H](C)[C@@H]1O[C@@H]([C@@H](CC)C(=O)NCCCCNC(=O)[C@H](CC)[C@H]2CC[C@H](C)[C@H]([C@@H](C)[C@H](O)[C@H](C)C(=O)[C@H](CC)[C@H]3O[C@]4(C=C[C@@H](O)[C@]5(CC[C@@](C)([C@H]6CC[C@](O)(CC)[C@H](C)O6)O5)O4)[C@H](C)C[C@@H]3C)O2)CC[C@@H]1C)[C@H]1O[C@]2(C=C[C@@H](O)[C@]3(CC[C@@](C)([C@H]4CC[C@](O)(CC)[C@H](C)O4)O3)O2)[C@H](C)C[C@@H]1C	No
COc1cccc2c1C(=O)c1c(O)c3c(c(O)c1C2=O)C[C@@](O)(C(=O)CO)C[C@@H]3O[C@H]1C[C@H](N)[C@H](O)[C@H](C)O1	Yes
CC[C@@H](C(=O)[C@@H](C)[C@@H](O)[C@H](C)[C@@H]1O[C@@H]([C@@H](CC)C(=O)NCCc2c[nH]cn2)CC[C@@H]1C)[C@H]1O[C@]2(C=C[C@@H](O)[C@]3(CC[C@@](C)([C@H]4CC[C@](O)(CC)[C@H](C)O4)O3)O2)[C@H](C)C[C@@H]1C	No
C#CCNC(=O)[C@H](CC)[C@H]1CC[C@H](C)[C@H]([C@@H](C)[C@H](O)[C@H](C)C(=O)[C@H](CC)[C@H]2O[C@]3(C=C[C@@H](O)[C@]4(CC[C@@](C)([C@H]5CC[C@](O)(CC)[C@H](C)O5)O4)O3)[C@H](C)C[C@@H]2C)O1	Yes
CC[C@@H](C(=O)[C@@H](C)[C@@H](O)[C@H](C)[C@@H]1O[C@@H]([C@@H](CC)C(=O)NCCc2ccc(O)c(O)c2)CC[C@@H]1C)[C@H]1O[C@]2(C=C[C@@H](O)[C@]3(CC[C@@](C)([C@H]4CC[C@](O)(CC)[C@H](C)O4)O3)O2)[C@H](C)C[C@@H]1C	Yes

Field: next molecule
stdin: Record CC[C@@H](C(=O)[C@@H](C)[C@@H](O)[C@H](C)[C@@H]1O[C@@H]([C@@H](CC)C(=O)NCCCCN)CC[C@@H]1C)[C@H]1O[C@]2(C=C[C@@H](O)[C@]3(CC[C@@](C)([C@H]4CC[C@](O)(CC)[C@H](C)O4)O3)O2)[C@H](C)C[C@@H]1C : is its IC50 strictly below 10 µM?
stdout: No
